Biological target: UniProtKB P35367
Sequence (P35367 whole entry): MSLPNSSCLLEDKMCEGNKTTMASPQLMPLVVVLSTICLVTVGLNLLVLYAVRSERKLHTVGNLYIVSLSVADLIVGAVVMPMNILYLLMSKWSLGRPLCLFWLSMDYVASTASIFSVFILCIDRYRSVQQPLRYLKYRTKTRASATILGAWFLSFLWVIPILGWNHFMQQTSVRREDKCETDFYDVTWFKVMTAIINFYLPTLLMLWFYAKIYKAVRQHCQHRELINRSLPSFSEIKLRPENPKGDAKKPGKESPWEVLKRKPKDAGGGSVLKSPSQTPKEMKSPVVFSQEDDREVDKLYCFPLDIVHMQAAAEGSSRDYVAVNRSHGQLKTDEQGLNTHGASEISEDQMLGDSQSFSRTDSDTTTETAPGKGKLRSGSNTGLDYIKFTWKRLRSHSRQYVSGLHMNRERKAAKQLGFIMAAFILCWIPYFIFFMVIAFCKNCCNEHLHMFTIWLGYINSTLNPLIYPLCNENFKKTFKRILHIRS
Experiment: Histamine H1 radioligand binding ([3H]Pyrilamine)
Conditions: read-out: Histamine Binding (1 μM) H1, percent inhibition of specific binding, 1 μM
Protocol: To evaluate in radioligand binding assays the activity of compounds of the invention, human recombinant histamine H1 receptor expressed in Chinese hamster ovary (CHO) cells (De Backer, M. D. et al., Biochem. Biophys. Res. Comm. 197(3):1601, 1993) in a modified Tris-HCl buffer (50 mM Tris-HCl, pH 7.4, 2 mM MgCl2, 100 mM NaCl, 250 mM Sucrose) was used. […] Receptor proteins were filtered and washed, the filters were then counted to determine [^3H]Pyrilamine specifically bound. […]
endpoint_label: inhibition at 1 µM (%)
Give bare numbers, in %.

C/C(=C\n1c2c(c3cc(C)ccc31)CN(C1CC1)CC2)c1ccncc1 [Compound 292] :: 11

State the recorded inhibition at 1 µM for every item in the following list.
1. CCN1CCc2c(c3cc(C)ccc3n2/C=C(\C)c2ccncc2)C1 [Compound 269]
2. C/C(=C\n1c2c(c3cc(C)ccc31)CN(C)CC2)c1cccc(S(C)(=O)=O)c1 [Compound No. 473]
3. COc1cccc2c3c(n(CC(C)(O)c4ccncc4)c12)CCN(C)C3 (centres unmarked) [Compound 343]

[-2, 35, 22]

State the recorded inhibition at 1 µM for every item in the following list.
1. Cc1ccc2c(c1)c1c(n2C(C)(C)C(O)c2ccccc2)CCN(C)C1 (centres unmarked) [Compound No. 467]
2. COc1ccc(/C(F)=C/n2c3c(c4cc(C)ccc42)CN(C)CC3)cn1 [compound 430]
3. CN1CCc2c(c3cc(Cl)ccc3n2CC(C)(O)c2ccncn2)C1 (centres unmarked) [Compound 198]
4. C/C(=C\n1c2c(c3cc(NCCO)ccc31)CN(C)CC2)c1ccncc1 [compound 449]

1. 54
2. 72
3. 64
4. -7

State the recorded inhibition at 1 µM for every item in the following list.
1. C/C(=C(/C)n1c2c(c3cc(C)ccc31)CN(C)CC2)c1ccncc1 [compound 403]
2. C/C(=C\n1c2c(c3cc(Cl)ccc31)CN(C)CC2)c1cc(Cl)cc(Cl)c1 [Compound 215]
3. Cc1ccc2c(c1)c1c(n2CC#Cc2ccccn2)CCN(C)C1 [Compound No. 500]
4. CCCCNc1ccc2c(c1)c1c(n2/C=C(\C)c2ccncc2)CCN(C)C1 [compound 444]
5. COc1ccc(C#Cn2c3c(c4cc(C)ccc42)CN(C)CC3)cc1F [Compound No. 485]
6. C=C(Cn1c2c(c3cc(Cl)ccc31)CN(C)CC2)c1cccnc1 [Compound 133]
7. Cc1ccc2c(c1)c1c(n2/C=C(\F)c2cccs2)CCN(C)C1 [compound 451]
8. CN1CCc2c(c3cc(Cl)ccc3n2CC(O)c2cccnc2)C1 (centres unmarked) [Compound 56]

37
89
70
-13
-6
101
99
90

State the recorded inhibition at 1 µM for every item in the following list.
1. C/C(=C\n1c2c(c3cc(C)ccc31)CN(C)CC2)c1ccc(S(C)(=O)=O)cc1 [Compound No. 462]
2. C/C(=C\n1c2c(c3cc(Cl)ccc31)CN(C)CC2)c1ccncn1 [Compound 289]

32
34

----------
molecular target: human recombinant serotonin 5-HT2A receptor (Homo sapiens, UniProt P28223); test: 5-HT2A agonist/antagonist functional assay (cytosolic Ca2+ fluorescence, HEK-293 cells)
Sequence (P28223 whole entry): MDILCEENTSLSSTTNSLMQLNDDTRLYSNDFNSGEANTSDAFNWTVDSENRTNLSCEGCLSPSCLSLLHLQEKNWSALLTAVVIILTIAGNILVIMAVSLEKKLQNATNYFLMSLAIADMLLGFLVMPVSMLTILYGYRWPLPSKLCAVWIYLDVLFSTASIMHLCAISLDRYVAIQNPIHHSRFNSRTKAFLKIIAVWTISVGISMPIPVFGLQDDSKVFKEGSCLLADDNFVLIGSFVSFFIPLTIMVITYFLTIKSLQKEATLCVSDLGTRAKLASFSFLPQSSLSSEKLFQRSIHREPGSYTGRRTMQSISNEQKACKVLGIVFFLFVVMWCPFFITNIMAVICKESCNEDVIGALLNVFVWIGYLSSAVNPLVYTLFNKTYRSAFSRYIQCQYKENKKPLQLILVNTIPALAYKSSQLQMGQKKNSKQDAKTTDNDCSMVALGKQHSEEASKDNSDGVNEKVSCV
endpoint_label: EC50
Write the numeric value and follow it with the unit.

For the molecule C/C(=C\n1c2c(c3cc(Cl)ccc31)CN(C)CC2)c1ccc(F)cc1 , give its measured EC50 value.
3.1 µM
